- experimentalSystem: δ opioid receptor (UniProt P41143)
Starred links: 1 amine or outer side, 2 acyl side, 3 side chain; linkers in the order of their positions; H or OH if unused. Non-standard residues stand in square brackets, D forms with d. No end group written: not given here. Phe(2-(4-MeO-phenyl)) = COc1ccc(-c2ccccc2C[C@H](N[*:1])C(=O)[*:2])cc1; Phe(2-(4-Cl-phenyl)) = O=C([C@H](Cc1ccccc1-c1ccc(Cl)cc1)N[*:1])[*:2]; Phe(3-vinyl) = C=Cc1cccc(C[C@H](N[*:1])C(=O)[*:2])c1; Phe(2-vinyl) = C=Cc1ccccc1C[C@H](N[*:1])C(=O)[*:2]; Dmt = Cc1cc(O)cc(C)c1C[C@H](N)C(=O)O; dNMeA = CN[C@H](C)C(=O)O
Field: label. Allowed values: Fulfilled (IC50 in the mouse vas deferens (MVD) assay < 3 nM) or Not fulfilled (IC50 in the mouse vas deferens (MVD) assay >= 3 nM).

binder="[Dmt][dNMeA][Phe(2-vinyl)]G-NH2 (N-terminus assumed; SMILES C=Cc1ccccc1C[C@H](NC(=O)[C@@H](C)N(C)C(=O)[C@@H](N)Cc1c(C)cc(O)cc1C)C(=O)NCC(N)=O) [Dmt-N-Me-D-Ala-Phe(2-vinyl)-Gly-NH2]" group=Fulfilled
binder="[Dmt][dR][Phe(2-(4-MeO-phenyl))]G-NH2 (N-terminus assumed; SMILES COc1ccc(-c2ccccc2C[C@H](NC(=O)[C@@H](CCCNC(=N)N)NC(=O)[C@@H](N)Cc2c(C)cc(O)cc2C)C(=O)NCC(N)=O)cc1) [Dmt-D-Arg-Phe(2-(4-MeO-phenyl))-Gly-NH2]" group="Not fulfilled"
binder="[Dmt][dA][Phe(2-vinyl)]G-NH2 (N-terminus assumed; SMILES C=Cc1ccccc1C[C@H](NC(=O)[C@@H](C)NC(=O)[C@@H](N)Cc1c(C)cc(O)cc1C)C(=O)NCC(N)=O) [Dmt-D-Ala-Phe(2-vinyl)-Gly-NH2]" group=Fulfilled
binder="[Dmt][dR][Phe(3-vinyl)]G-NH2 (N-terminus assumed; SMILES C=Cc1cccc(C[C@H](NC(=O)[C@@H](CCCNC(=N)N)NC(=O)[C@@H](N)Cc2c(C)cc(O)cc2C)C(=O)NCC(N)=O)c1) [Dmt-D-Arg-Phe(3-vinyl)-Gly-NH2]" group="Not fulfilled"
binder="[Dmt][dR][Phe(2-(4-Cl-phenyl))]G-NH2 (N-terminus assumed; SMILES Cc1cc(O)cc(C)c1C[C@H](N)C(=O)N[C@H](CCCNC(=N)N)C(=O)N[C@@H](Cc1ccccc1-c1ccc(Cl)cc1)C(=O)NCC(N)=O) [Dmt-D-Arg-Phe(2-(4-Cl-phenyl))-Gly-NH2]" group=Fulfilled
binder="[Dmt][dR][Phe(2-vinyl)]G-NH2 (N-terminus assumed; SMILES C=Cc1ccccc1C[C@H](NC(=O)[C@@H](CCCNC(=N)N)NC(=O)[C@@H](N)Cc1c(C)cc(O)cc1C)C(=O)NCC(N)=O) [Dmt-D-Arg-Phe(2-vinyl)-Gly-NH2]" group=Fulfilled
